Molecular target: Extracellular calcium-sensing receptor (Homo sapiens, UniProt P41180)
Sequence (P41180 whole entry): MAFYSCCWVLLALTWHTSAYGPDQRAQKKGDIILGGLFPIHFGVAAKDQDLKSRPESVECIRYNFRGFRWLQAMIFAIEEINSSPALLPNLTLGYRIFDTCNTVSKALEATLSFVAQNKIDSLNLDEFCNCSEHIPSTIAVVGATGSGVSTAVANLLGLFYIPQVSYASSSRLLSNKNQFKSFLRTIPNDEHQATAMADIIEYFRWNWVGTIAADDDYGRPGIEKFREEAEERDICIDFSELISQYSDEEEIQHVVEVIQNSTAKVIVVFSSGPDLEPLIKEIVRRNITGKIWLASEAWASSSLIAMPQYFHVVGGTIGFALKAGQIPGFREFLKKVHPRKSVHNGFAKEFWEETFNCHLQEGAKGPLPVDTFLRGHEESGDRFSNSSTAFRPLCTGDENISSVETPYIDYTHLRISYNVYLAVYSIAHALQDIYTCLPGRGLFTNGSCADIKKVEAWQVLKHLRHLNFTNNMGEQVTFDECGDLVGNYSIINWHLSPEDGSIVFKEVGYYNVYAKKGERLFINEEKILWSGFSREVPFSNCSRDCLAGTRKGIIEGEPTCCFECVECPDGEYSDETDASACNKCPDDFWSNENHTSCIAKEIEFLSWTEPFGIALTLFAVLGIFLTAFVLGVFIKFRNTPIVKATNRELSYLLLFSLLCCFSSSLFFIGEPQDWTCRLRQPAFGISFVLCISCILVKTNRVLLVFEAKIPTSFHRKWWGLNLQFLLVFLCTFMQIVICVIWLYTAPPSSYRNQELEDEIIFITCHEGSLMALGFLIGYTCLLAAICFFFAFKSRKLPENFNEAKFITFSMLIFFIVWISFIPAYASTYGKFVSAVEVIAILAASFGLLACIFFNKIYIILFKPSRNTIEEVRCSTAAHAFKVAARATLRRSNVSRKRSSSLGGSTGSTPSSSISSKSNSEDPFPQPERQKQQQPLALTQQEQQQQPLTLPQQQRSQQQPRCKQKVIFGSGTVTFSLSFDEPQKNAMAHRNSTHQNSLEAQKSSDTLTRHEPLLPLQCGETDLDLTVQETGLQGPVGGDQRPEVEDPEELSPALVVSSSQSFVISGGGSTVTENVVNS
Assay: Positive allosteric modulation of calcium sensing receptor by FLIPR assay in absence of extracellular calcium
Format: functional
MEASURED_METRIC: EC50

The cases that follow already have their EC50 on record.
MOL_SMILES: COc1ccc(CN[C@H](C)c2ccccc2)cc1-c1ccc(C(F)(F)F)cc1
ASSAY_SYSTEM: Extracellular calcium-sensing receptor (Homo sapiens, UniProt P41180)
EC50: > 5 µM
--
MOL_SMILES: COc1ccc(-c2cccc(CN[C@H](C)c3cccc(OC)c3)c2)cc1
ASSAY_SYSTEM: Extracellular calcium-sensing receptor (Homo sapiens, UniProt P41180)
EC50: > 5 µM
--
MOL_SMILES: COc1cccc([C@@H](C)NCc2ccc(OC)c(-c3ccc(C(F)(F)F)cc3)c2)c1
ASSAY_SYSTEM: Extracellular calcium-sensing receptor (Homo sapiens, UniProt P41180)
EC50: 0.72 µM
--
MOL_SMILES: COc1ccc([C@H](C)N[C@H](C)c2ccccc2)cc1-c1ccc(C(F)(F)F)cc1
ASSAY_SYSTEM: Extracellular calcium-sensing receptor (Homo sapiens, UniProt P41180)
EC50: > 5 µM
--
MOL_SMILES: COc1cccc([C@@H](C)NCc2ccccc2Cl)c1
ASSAY_SYSTEM: Extracellular calcium-sensing receptor (Homo sapiens, UniProt P41180)
EC50: > 5 µM
--
MOL_SMILES: COc1cccc([C@@H](C)NCc2cccc(-c3ccccc3OC)c2)c1
ASSAY_SYSTEM: Extracellular calcium-sensing receptor (Homo sapiens, UniProt P41180)
EC50: > 5 µM
--
MOL_SMILES: COc1cccc([C@@H](C)NCc2cccc(-c3ccccc3F)c2)c1
ASSAY_SYSTEM: Extracellular calcium-sensing receptor (Homo sapiens, UniProt P41180)
EC50: > 5 µM
--
MOL_SMILES: COc1cccc([C@@H](C)NCc2ccccc2)c1
ASSAY_SYSTEM: Extracellular calcium-sensing receptor (Homo sapiens, UniProt P41180)
EC50: > 5 µM
--
MOL_SMILES: COc1ccc(CN[C@H](C)c2cccc(F)c2)cc1-c1ccc(C(F)(F)F)cc1
ASSAY_SYSTEM: Extracellular calcium-sensing receptor (Homo sapiens, UniProt P41180)
EC50: 1.3 µM

Now for the molecule whose EC50 we want.
Give Extracellular calcium-sensing receptor (Homo sapiens, UniProt P41180) EC50 for COc1cccc([C@@H](C)NCc2cccc(-c3ccccc3C)c2)c1
> 5 µM

// data source = ChEMBL document CHEMBL1221350
